meta.source: patent US12391670B2

- target desc: human thermostabilised A2B receptor
- assay details: Wave Guided Interferometry (WGI)
- conditions used: 1:1 interaction model
pKd listing for selected compounds.
Scale: pKd equals -log10([C]), with [C] in mol/L.

Example cases with answers are listed next.
{"compound": "Cc1n[nH]c(Nc2nnc(-c3ccncc3F)c(-c3ccccc3F)n2)n1 [Example 15]", "pKd": 6.92}
{"compound": "Fc1ccccc1-c1nc(Nc2cccnc2)nnc1-c1ccnc(C(F)(F)F)c1 [Example 8]", "pKd": 6.89}
{"compound": "CNC(=O)Nc1nnc(-c2ccncc2F)c(-c2ccccc2F)n1 [Example 16]", "pKd": 7.00}
{"compound": "Fc1cccc(Nc2nnc(-c3ccncc3F)c(-c3cccnc3)n2)c1 [Example 2]", "pKd": 6.00}
{"compound": "Cc1cc(Nc2nnc(-c3ccncc3F)c(-c3ccccc3F)n2)[nH]n1 [Example 14]", "pKd": 6.62}

**Q:** Name the value of pKd reported for Fc1cnccc1-c1nnc(Nc2nc(Cl)cs2)nc1-c1cccnc1 [Example 4] when tested on human thermostabilised A2B receptor.
**A:** 6.00

**Q:** Name the value of pKd reported for Fc1cnccc1-c1nnc(Nc2cccnc2)nc1-c1cccnc1 [Example 1] when tested on human thermostabilised A2B receptor.
**A:** 6.30

**Q:** Name the value of pKd reported for Cc1nsc(Nc2nnc(-c3ccnc(C(F)(F)F)c3)c(-c3ccccc3F)n2)n1 [Example 11] when tested on human thermostabilised A2B receptor.
**A:** 6.33
